assay: Cytotoxicity against Mus musculus (mouse) EAC assessed as cell viability by trypan blue exclusion assay; assay type: functional, Ehrlich
Measured ED25 values are reported for all entries that follow.
Express it in mM; write the number only.

Record excerpt, results attached:
COc1cc(/C=C/c2cc(/C=C/c3cc(/N=N/c4ccc(Cl)cc4)c(O)c(OC)c3)n(CO)n2)cc(/N=N/c2ccc(Cl)cc2)c1O	3.6
COc1cc(/C=C/C(=O)CC(=O)/C=C/c2ccc(O)c(OC)c2)ccc1O [CURCUMIN]	4.8
COc1cc(/C=C/c2cc(/C=C/c3ccc(O)c(OC)c3)[nH]n2)ccc1O [CURCUMIN PYRAZOLE]	66.7

Shift focus to the following entry.
The molecule COc1cc(C2CC(C(=NNc3ccc([N+](=O)[O-])cc3)C3=NNC(c4ccc(O)c(OC)c4)C3)=NN2)ccc1O (centres undefined) showed ED25 equal to 38.9
